src = patent US12600727B2

- Tested on: Toxoplasma gondii tachyzoites (ME49-FLUC, type 2)
- procedure-text: T. gondii ME49-FLUC tachyzoite growth inhibition in HFF, luciferase assay
- Assay type: cell-based
- condition-label: T. gondii ME49-FLUC (type 2) tachyzoites in HFF
assay-readout: EC50 (nM)
Numbers only here, please. The scale is nM.

### Prompt State its EC50 for this compound: COc1ccc(NC(=O)N2CCCCN3[C@H](CO)[C@H](c4ccc(C#Cc5ccccc5)cc4)[C@]3(CO)C2)cc1 [Compound 11]
### Response 1690

### Prompt Please give the documented EC50 of COc1ccc(NC(=O)N2CCCCN3[C@H](COCCC(=O)O)[C@H](c4ccc(C#Cc5ccccc5)cc4)[C@@H]3C2)cc1 [Compound 2]
### Response 64.3

### Prompt Name the recorded EC50 of the item COc1ccc(NC(=O)N2CCCCN3[C@H](CO)[C@H](c4ccc(C#Cc5ccccc5C#N)cc4)[C@@H]3C2)cc1 [Compound 12] in your answer.
### Response 213

### Prompt Quick one: give measured EC50 for OC[C@@H]1[C@H](c2ccc(C#Cc3ccccc3)cc2)[C@@H]2CN(c3nc4ccccc4s3)CCCCN12 [Compound 19]
### Response 3940

### Prompt Answer with the recorded EC50 of COC[C@@H]1[C@H](c2ccc(C#Cc3ccccc3)cc2)[C@@H]2CN(C(=O)Nc3ccc(OC)cc3)CCCCN12 [Compound 9] only.
### Response 50.4

### Prompt Identify the reported EC50 for the following entry. COc1ccc(NC(=O)N2CCCCCN3[C@H](CO)[C@H](c4ccc(C#Cc5ccccc5)cc4)[C@@H]3C2)cc1 [Compound 20]
### Response 169

### Prompt Report EC50 for COc1ccc(NC(=O)N2CCCCN3[C@H](CN(C)CCF)[C@H](c4ccc(C#Cc5ccccc5)cc4)[C@@H]3C2)cc1 [Compound 5]
### Response 89.5

====

- Test system: Toxoplasma gondii tachyzoites (ME49-FLUC, type 2)
- procedure-text: T. gondii ME49-FLUC tachyzoite growth inhibition in HFF, luciferase assay
- Type: cell-based
- condition-label: T. gondii ME49-FLUC (type 2) tachyzoites in HFF
I'd appreciate it if you could supply pEC50 values for the items below.
In simple prose, pEC50 is minus the logarithm base ten of a concentration in moles per litre.

### Prompt State the measured pEC50 (Toxoplasma gondii tachyzoites (ME49-FLUC, type 2)) of "COc1ccc(NC(=O)N2C[C@H](O)[C@H](O)CN3[C@H](CN(C)C)[C@H](c4ccc(C#Cc5ccccc5)cc4)[C@@H]3C2)cc1"
### Response 7.41

### Prompt Give pEC50 for "COc1ccc(NC(=O)N2CCCCN3[C@H](CO)[C@H](c4ccc(C#Cc5ccccc5)cc4)[C@@H]3C2)cc1" tested on Toxoplasma gondii tachyzoites (ME49-FLUC, type 2).
### Response 7.54

### Prompt Write down the reported pEC50 (system: Toxoplasma gondii tachyzoites (ME49-FLUC, type 2)) of "CN(C[C@@H]1[C@H](c2ccc(C#Cc3ccccc3)cc2)[C@@H]2CN(C(=O)Nc3ccc(OC4CC4)cc3)CCCCN12)S(C)(=O)=O"
### Response 7.73

### Prompt Provide measured pEC50 on Toxoplasma gondii tachyzoites (ME49-FLUC, type 2) for "COc1ccc(NC(=O)N2CCCCN3[C@@H](C2)[C@@H](c2ccc(C#Cc4ccccc4)cc2)[C@@H]3CN(C)S(C)(=O)=O)cc1" please.
### Response 7.40

### Prompt Tell me its pEC50 on Toxoplasma gondii tachyzoites (ME49-FLUC, type 2): "O=C(Nc1cccc(F)c1)N1CCCCN2[C@H](CO)[C@H](c3ccc(C#Cc4cccnc4)cc3)[C@@H]2C1"
### Response 6.31

### Prompt Quote pEC50 with test system Toxoplasma gondii tachyzoites (ME49-FLUC, type 2) for "COc1ccc(NC(=O)N2CCCCN3[C@H](CN4CCN(C)CC4)[C@H](c4ccc(C#Cc5ccccc5)cc4)[C@@H]3C2)cc1"
### Response 6.37

### Prompt Report pEC50 from Toxoplasma gondii tachyzoites (ME49-FLUC, type 2) testing of "COc1ccc(NC(=O)N2CCCCN3[C@H](CO)[C@H](c4ccc(C#CC5CC5)cc4)[C@@H]3C2)cc1"
### Response 5.79

### Prompt Fill in: pEC50 on Toxoplasma gondii tachyzoites (ME49-FLUC, type 2), entry "COc1ccc(NC(=O)N2CCCCN3[C@H](CN4CCC4)[C@H](c4ccc(C#Cc5ccccc5)cc4)[C@@H]3C2)cc1"
### Response 6.35

### Prompt Look up and report measured pEC50 (Toxoplasma gondii tachyzoites (ME49-FLUC, type 2)) for the following compound: "COc1ccc(NC(=O)N2CCCCN3[C@H](CN(C)S(C)(=O)=O)[C@H](c4ccc(C#Cc5ccccc5)cc4)[C@@H]3C2)cc1"
### Response 7.46

### Prompt Name the value of pEC50 reported for "COc1ccc(NC(=O)N2CCCCN3C[C@H](c4ccc(C#Cc5ccccc5)cc4)[C@@H]3C2)cc1" when tested on Toxoplasma gondii tachyzoites (ME49-FLUC, type 2).
### Response 7.11

### Prompt State pEC50 on Toxoplasma gondii tachyzoites (ME49-FLUC, type 2). Entry: "O=C(NC1CCC1)N1CCCCN2[C@H](CO)[C@H](c3ccc(C#Cc4ccccc4)cc3)[C@@H]2C1"
### Response 5.59

### Prompt Find the measured pEC50 of "COc1ccc(NC(=O)N2CCCCN3[C@H](CN(C)C)[C@H](c4ccc(C#Cc5ccccc5)cc4)[C@@H]3C2)cc1" with Toxoplasma gondii tachyzoites (ME49-FLUC, type 2) as test system.
### Response 7.65

### Prompt Tell me its pEC50 on Toxoplasma gondii tachyzoites (ME49-FLUC, type 2): "COc1ccc(NC(=O)N2CCCN3[C@H](CO)[C@H](c4ccc(C#Cc5ccccc5)cc4)[C@@H]3C2)cc1"
### Response 5.76

### Prompt Provide Toxoplasma gondii tachyzoites (ME49-FLUC, type 2) pEC50 reading for "COc1ccc(NC(=O)N2CCCCN3[C@@H](CO)[C@H](c4ccc(C#Cc5ccccn5)cc4)[C@@H]3C2)cc1" .
### Response 6.19
